Source listed as BigSolDB 2.1.

Settings: in isobutanol, 288.15 K
Assay readout: solubility (mole fraction)
Answer with a number only.

Q: Entry under review: c1ccc2[nH]cnc2c1 . Reported solubility (mole fraction)?
Result: 0.083

----------
Conditions: in isopropyl acetate, 308.15 K
Assay readout: solubility (mole fraction)

Q: Entry under review: c1ccc2[nH]cnc2c1 . Reported solubility (mole fraction)?
Result: 0.0152

----------
Details: in n-propyl acetate, 298.15 K
Assay readout: solubility (mole fraction)

Q: Entry under review: c1ccc2[nH]cnc2c1 . Reported solubility (mole fraction)?
Result: 0.0105

----------
Details: in n-propyl acetate, 288.15 K
Assay readout: solubility (mole fraction)
Answer with a number only.

Q: Entry under review: c1ccc2[nH]cnc2c1 . Reported solubility (mole fraction)?
Result: 0.0076
